Target: T1, extracellular domain of activin receptor type IIB (ActRIIBecd), biotinylated (Homo sapiens (Human), UniProt Q13705 27-117, amino-biotinylated with amine-PEG3-Biotin)
T1 construct: immobilised on a streptavidin-coated sensor chip; also called biotinylated ActRIIBecd; extracellular domain of ActRIIB
T1 sequence: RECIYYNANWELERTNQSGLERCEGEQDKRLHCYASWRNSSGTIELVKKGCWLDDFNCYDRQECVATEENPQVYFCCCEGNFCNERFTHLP
Test: Mean KD column of Table 5; method not restated (BIAcore as Example 5); species also listed in Table 4
Bridges are numbered along the chain shown (N, C = ends).
METRIC: Kd
Numeric answer plus unit only.

Known Kd results, listed for orientation:
1) SEQ ID NO: 260, cysteine pairs C15-C15^b, C79-C114^a, C80-C112^a, C44-C48^a (designed binder, disulfides C15-C15 (inter), C79-C114 (intra), C80-C112 (intra), C44-C48 (intra), homodimer by intermolecular disulfide) AQAKHKQRKRLKSSCKRHPLYVDFSDVGWNDWIVAPPGYHAFYCHGECPFPLADHLNSTNHAIVQTLVNSVNSKIPKACCVPTELSAISMLYLDENEKVVLKNYQDMVVEGCGCR
7.64 nM
2) SEQ ID NO: 276, cysteine pairs C67-C71^a, C8-C43^a, C9-C41^a, C109-C109^b (designed binder, disulfides C67-C71 (intra), C8-C43 (intra), C9-C41 (intra), C109-C109 (inter), homodimer by intermolecular disulfide) NSKIPKACCVPTELSAISMLYLDENEKVVLKNYQDMVVEGCGCRVDFSDVGWNDWIVAPPGYHAFYCHGECPFPLADHLNSTNHAIVQTLVNSVAQAKHKQRKRLKSSCKRHPLY
7.66 nM
3) SEQ ID NO: 254, cysteine pairs C23-C27^a, C58-C91^a, C59-C93^a (designed binder, disulfides C23-C27 (intra), C58-C91 (intra), C59-C93 (intra)) VDFKDVGWNDHAVAPPGYHAFYCHGECPFPLADHLNSDNHAIVQTKVNSVNSKDPKACCVPTELSAPSPLYLDENEKPVLKNYQDMVVHGCGCR
17.6 nM

Kindly give each listed record's Kd.
1. SEQ ID NO: 284, cysteine pairs C59-C59^b, C8-C43^a, C9-C41^a, C88-C92^a (designed binder, disulfides C59-C59 (inter), C8-C43 (intra), C9-C41 (intra), C88-C92 (intra), homodimer by intermolecular disulfide) NSKIPKACCVPTELSAISMLYLDENEKVVLKNYQDMVVEGCGCRAQAKHKQRKRLKSSCKRHPLYVDFSDVGWNDWIVAPPGYHAFYCHGECPFPLADHLNSTNHAIVQTLVNSV
2. SEQ ID NO: 332, cysteine pairs C15-C15^b, C80-C114^b, C79-C112^b, C44-C48^a (designed binder, disulfides C15-C15 (inter), C80-C114 (inter), C79-C112 (inter), C44-C48 (intra), homodimer by intermolecular disulfide) GQAKRKGYKRLKSSCKRHPLYVDFSDVGWNDWIVAPPGYHAFYCHGECPFPLADHLNSTNHAIVQTLVNSVNSKDPKACCVPTELSAPSPLYLDENEKPVLKNYQDMVVHGCGCR
3. SEQ ID NO: 268, cysteine pairs C23-C27^a, C65-C65^b, C79-C112^a, C80-C114^a (designed binder, disulfides C23-C27 (intra), C65-C65 (inter), C79-C112 (intra), C80-C114 (intra), homodimer by intermolecular disulfide) VDFSDVGWNDWIVAPPGYHAFYCHGECPFPLADHLNSTNHAIVQTLVNSVAQAKHKQRKRLKSSCKRHPLYNSKIPKACCVPTELSAISMLYLDENEKVVLKNYQDMVVEGCGCR
4. SEQ ID NO: 248, cysteine pairs C67-C71^a, C8-C43^b, C9-C41^b (designed binder, disulfides C67-C71 (intra), C8-C43 (inter), C9-C41 (inter), homodimer by intermolecular disulfide) NSKDPKACCVPTELSAPSPLYLDENEKPVLKNYQDMVVHGCGCRVDFKDVGWNDHAVAPPGYHAFYCHGECPFPLADHLNSDNHAIVQTKVNSV
5. SEQ ID NO: 218, cysteine pairs C15-C30^a (designed binder, disulfide 15-30) AQAKHKQRKRLKSSCKRHPLYNSKIPKACCVPTELSAISMLYLDENEKVVLKNYQDMVVEGCGCR
6. SEQ ID NO: 236, cysteine pairs C59-C59^b, C8-C43^a, C9-C41^a (designed binder, disulfide 9-41, 8-43; also: homodimer via intermolecular C59-C59 disulfide, homodimer by intermolecular disulfide) NSKDPKACCVPTELSAPSPLYLDENEKPVLKNYQDMVVHGCGCRGQAKRKGYKRLKSSCKRHPLY
7. SEQ ID NO: 340, cysteine pairs C15-C29^a (designed binder, disulfides C15-C29 (intra)) AQAKHKQRKRLKSSCKRHPLYNSKDPKACCVPTELSAPSPLYLDENEKPVLKNYQDMVVHGCGCRVDFKDVGWNDHAVAPPGYHAFYCHGECPFPLADHLNSDNHAIVQTKVNSV
8. SEQ ID NO: 200, cysteine pairs C23-C27^a, C58-C91^b, C59-C93^b (designed binder, disulfides C23-C27 (intra), C58-C91 (inter), C59-C93 (inter), homodimer by intermolecular disulfide) VDFSDVGWNDWIVAPPGYHAFYCHGECPFPLADHLNSTNHAIVQTLVNSVNSKIPKACCVPTELSAISMLYLDENEKVVLKNYQDMVVEGCGCR

Reply text:
1. 6.88 nM
2. 7.42 nM
3. 7.21 nM
4. 19.2 nM
5. 40.9 nM
6. 17.1 nM
7. 30.1 nM
8. 19.8 nM

Kindly give each listed record's Kd.
1. SEQ ID NO: 300, cysteine pairs C23-C27^a, C65-C65^b, C79-C114^a, C80-C112^a (designed binder, disulfides C23-C27 (intra), C65-C65 (inter), C79-C114 (intra), C80-C112 (intra), homodimer by intermolecular disulfide) VDFKDVGWNDHAVAPPGYHAFYCHGECPFPLADHLNSDNHAIVQTKVNSVGQAKRKGYKRLKSSCKRHPLYNSKDPKACCVPTELSAPSPLYLDENEKPVLKNYQDMVVHGCGCR
2. SEQ ID NO: 212, cysteine pairs C59-C59^b, C8-C43^a, C9-C41^a (designed binder, disulfide 9-41, 8-43; also: homodimer via intermolecular C59-C59 disulfide, homodimer by intermolecular disulfide) NSKIPKACCVPTELSAISMLYLDENEKVVLKNYQDMVVEGCGCRAQAKHKQRKRLKSSCKRHPLY
3. SEQ ID NO: 260, cysteine pairs C79-C80^a (designed binder, disulfides C79-C80 (intra)) AQAKHKQRKRLKSSCKRHPLYVDFSDVGWNDWIVAPPGYHAFYCHGECPFPLADHLNSTNHAIVQTLVNSVNSKIPKACCVPTELSAISMLYLDENEKVVLKNYQDMVVEGCGCR
4. SEQ ID NO: 268, cysteine pairs C23-C79^a (designed binder, disulfides C23-C79 (intra)) VDFSDVGWNDWIVAPPGYHAFYCHGECPFPLADHLNSTNHAIVQTLVNSVAQAKHKQRKRLKSSCKRHPLYNSKIPKACCVPTELSAISMLYLDENEKVVLKNYQDMVVEGCGCR
5. SEQ ID NO: 284, cysteine pairs C59-C59^b, C8-C43^b, C9-C41^b, C88-C92^a (designed binder, disulfides C59-C59 (inter), C8-C43 (inter), C9-C41 (inter), C88-C92 (intra), homodimer by intermolecular disulfide) NSKIPKACCVPTELSAISMLYLDENEKVVLKNYQDMVVEGCGCRAQAKHKQRKRLKSSCKRHPLYVDFSDVGWNDWIVAPPGYHAFYCHGECPFPLADHLNSTNHAIVQTLVNSV

Reply text:
["7.37 nM", "19.3 nM", "29.1 nM", "29.6 nM", "6.91 nM"]
